Biological target: intracellular adhesion molecule (ICAM-1; CD54) (UniProt P05362 28-532, limits assumed)
Sequence (P05362 28-532 limits assumed): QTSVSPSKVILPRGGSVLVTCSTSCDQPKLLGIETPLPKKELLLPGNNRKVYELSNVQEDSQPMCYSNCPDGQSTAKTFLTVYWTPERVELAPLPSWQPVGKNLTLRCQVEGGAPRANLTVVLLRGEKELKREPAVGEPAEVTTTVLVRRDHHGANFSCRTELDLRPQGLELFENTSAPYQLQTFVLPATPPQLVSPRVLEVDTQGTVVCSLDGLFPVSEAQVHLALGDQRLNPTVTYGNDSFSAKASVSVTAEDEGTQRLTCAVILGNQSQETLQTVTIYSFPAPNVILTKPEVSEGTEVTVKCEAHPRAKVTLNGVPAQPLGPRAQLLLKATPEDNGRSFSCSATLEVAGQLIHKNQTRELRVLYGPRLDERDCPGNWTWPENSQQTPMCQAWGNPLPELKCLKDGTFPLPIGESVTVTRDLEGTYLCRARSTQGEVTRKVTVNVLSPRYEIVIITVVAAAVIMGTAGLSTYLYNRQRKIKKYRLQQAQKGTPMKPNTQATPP
Experiment: cell-based or functional assay
Bridge positions count the residues as written; N and C are the ends. Square brackets hold non-standard residues; d marks the D form. Ends that are not written are not given here. Pen = CC(C)(S)[C@H](N)C(=O)O
measured-attribute: Inhibition of T-cell Proliferation (%) in mixed lymphocyte reaction, peptide at 500 µM
Field format: number, assumed %, no unit text.

binder	numeric-readout
H-[Pen]DLRNVKKLGGC-NH2 (disulfide 1-12; SMILES CC(C)C[C@@H]1NC(=O)[C@H](CCCCN)NC(=O)[C@H](CCCCN)NC(=O)[C@H](C(C)C)NC(=O)[C@H](CC(N)=O)NC(=O)[C@H](CCCNC(=N)N)NC(=O)[C@H](CC(C)C)NC(=O)[C@H](CC(=O)O)NC(=O)[C@@H](N)C(C)(C)SSC[C@@H](C(N)=O)NC(=O)CNC(=O)CNC1=O) [cLBEC]	18
H-[dD][dL][dR][dN][dV][dK][dK][dL]GG (not fully specified (C-terminus)) [D-LBEC]	-47.6

Pending binder:
Problem: Look at this binder and give its reported Inhibition of T-cell Proliferation (%) in mixed lymphocyte reaction, peptide at 500 µM. H-[Pen]DLSYSLDDLRC-NH2 (disulfide 1-12; SMILES CC(C)C[C@@H]1NC(=O)[C@H](CC(=O)O)NC(=O)[C@H](CC(=O)O)NC(=O)[C@H](CC(C)C)NC(=O)[C@H](CO)NC(=O)[C@H](Cc2ccc(O)cc2)NC(=O)[C@H](CO)NC(=O)[C@H](CC(C)C)NC(=O)[C@H](CC(=O)O)NC(=O)[C@@H](N)C(C)(C)SSC[C@@H](C(N)=O)NC(=O)[C@H](CCCNC(=N)N)NC1=O) [cLBEL]
Solution: 18
